- System: Trypanosoma cruzi
- MEASUREMENT NOTES: Antimicrobial activity against epimastigote stage of Trypanosoma cruzi Y after 72 hrs by MTT assay
- Format: functional, organism-based
pIC50: −log10 of the molar value.
Overview of recorded pIC50 for various compounds
METRIC: pIC50

[
  {
    "SMILES INPUT": "O=C(Cn1ccnc1[N+](=O)[O-])NCc1ccccc1",
    "TGT": "Trypanosoma cruzi",
    "METRIC": "pIC50",
    "RESULT": 4.47
  },
  {
    "SMILES INPUT": "N=C(N)c1ccc(OCCCCCOc2ccc(C(=N)N)cc2)cc1",
    "TGT": "Trypanosoma cruzi",
    "METRIC": "pIC50",
    "RESULT": 5.34
  },
  {
    "SMILES INPUT": "COc1ccc(CNCCNCc2ccc(OC)cc2)cc1",
    "TGT": "Trypanosoma cruzi",
    "METRIC": "pIC50",
    "RESULT": 4.96
  },
  {
    "SMILES INPUT": "Clc1ccc(CNCCNCc2ccc(Cl)cc2Cl)c(Cl)c1",
    "TGT": "Trypanosoma cruzi",
    "METRIC": "pIC50",
    "RESULT": 4.29
  },
  {
    "SMILES INPUT": "O=[N+]([O-])c1ccc(CNCCNCc2ccc([N+](=O)[O-])cc2)cc1",
    "TGT": "Trypanosoma cruzi",
    "METRIC": "pIC50",
    "RESULT": 3.91
  },
  {
    "SMILES INPUT": "Cl.Cl.c1ccc(CNCCNCc2ccccc2)cc1",
    "TGT": "Trypanosoma cruzi",
    "METRIC": "pIC50",
    "RESULT": 3.80
  },
  {
    "SMILES INPUT": "Oc1ccccc1CNCCNCc1ccccc1O",
    "TGT": "Trypanosoma cruzi",
    "METRIC": "pIC50",
    "RESULT": 3.96
  }
]

Source listed as ChEMBL document CHEMBL3232984.
